tested on: UO-31; test: NCI tumour cell line growth inhibition, 48 h
Activity calls are given as the source filed them. Cut-off read from the data, not from the text of the source: active = GI50 up to about 1.1 µM and inactive = higher.

molecule	target.or.system	GI50
CCc1ccccc1NC(=O)CC1NC(=O)CS1 (stereo not given)	UO-31	> 100 µM (inactive)
CCc1nc(N)nc(N)c1-c1ccc(Cl)c([N+]#N)c1	UO-31	78.3 µM (inactive)
CSc1ccc2c(cc1=O)[C@@H](NC(C)=O)CCc1cc(O)c(O)c(O)c1-2	UO-31	21.6 µM (inactive)
COc1cc(OC)cc(C(=O)CC(=O)c2cc(OC)cc(OC)c2)c1	UO-31	> 100 µM (inactive)
Cc1c[nH]c(C(=O)O)c1-c1ccc2c(-c3ccccc3)nc3ccccc3n12	UO-31	34.4 µM (inactive)
